# Test system: Plasmodium berghei
# testDetails: Screen against P. berghei liver stage (PbLuc), transformed with Luciferase, at 10uM
# Assay type: functional, HepG2
# experimentalParameters: tested at 10 uM
Hit rate of the full screen: of about 69,000 compounds, about 8,600 (12%) showed an effect of 50% or more. The full list was thinned out, with strong results kept by preference.
propertyLabel: INHIBITION (%)
Provide the reading as a plain figure in %.

O=C(c1cc2c([nH]c1=O)CCC2)N1CCCC1c1ccc(F)cc1 (configuration not stated) :: 20.6

Could you share which INHIBITION value was measured for CCc1cnc(CNC(=O)NCCc2ccc(O)cc2)s1 ?
71.1

// repeat for CCCn1nc(C2CCNCC2)n(Cc2ccccc2)c1=O and report
26.8

// repeat for Cn1cnc2c1CCN(CC(O)c1ccc3c(c1)OCCO3)C2 (configuration not stated) and report
42.6
